# TEST SUMMARY: gradient 5% acetonitrile 3 min, to 50% in 2 min, to 85% in 15 min, held 3 min, 100 µL/min
# CONDITIONS USED: column: Zorbax Extend-C18 2.1 x 50 mm; eluents: water / acetonitrile, 0.1% formic acid
Assign labels as follows, please: Fulfilled for RP-LC retention time below 800 s; Not fulfilled for RP-LC retention time equal to or exceeding 800 s.

MOLECULE: Cc1cc(C)n(CC(=O)N2CCN(c3ccccc3)CC2)c1-c1nc(C2CC2)no1
CLASS NAME: Not fulfilled

MOLECULE: Cc1ccc(-c2nnc(-c3cccc(S(=O)(=O)NC(C(=O)O)C(C)C)c3)o2)cc1 (stereo not given)
CLASS NAME: Not fulfilled

MOLECULE: CCOC(=O)Cc1csc(NC(=O)Cn2nc3c(cc2=O)CCCCC3)n1
CLASS NAME: Fulfilled
